- System: HCC1954 cells
- Procedure Summary: Inhibition of HCC1954 cell growth (method analogous to BT-474)
- Type: cell-based
- Experimental Context: Homo sapiens
Measurement Type: IC50 (nM)
Supply the numeric figure in nM, leaving out any unit text.

Use these answered entries as a reference point.
## Task Look up IC50: C/C=C(\C)[C@H]1OC(=O)[C@@H](C)NC(=O)[C@H](C(C)CC)NC(=O)CN(C)C(=O)[C@@H](Cc2ccc(Cl)cc2)N(C)C(=O)[C@H](C)NC(=O)[C@@H](CC(C)C)OC(=O)/C(C)=C/C[C@H](OC(=O)N(C)CCCCCCNC)[C@@H]1C (stereo partly shown)
## Result 4.16

## Task # IC50 lookup, item "C/C=C(\C)[C@H]1OC(=O)C(C)(C)NC(=O)[C@H]([C@H](C)CC)NC(=O)CN(C)C(=O)[C@@H](Cc2ccc(Cl)cc2)N(C)C(=O)[C@H](C)NC(=O)[C@@H](CC(C)C)OC(=O)/C(C)=C/C[C@H](OC(=O)N(C)CCCCCCNC)[C@@H]1C"
## Result 0.47

## Task Give its IC50 value. Item: C/C=C(\C)[C@H]1OC(=O)[C@@H](C)NC(=O)[C@H](C(C)CC)NC(=O)CN(C)C(=O)[C@@H](Cc2ccccc2)N(C)C(=O)[C@H](C)NC(=O)[C@@H](CC(C)C)OC(=O)/C(C)=C/C[C@H](OC(=O)NCCOCCO)[C@@H]1C (stereo partly shown)
## Result 1.64

In the following, a different compound is considered.
## Task Which measured IC50 value corresponds to "C/C=C(\C)[C@H]1OC(=O)[C@@H](C)NC(=O)[C@H]([C@H](C)CC)NC(=O)CN(C)C(=O)[C@@H](Cc2ccc(Cl)cc2)N(C)C(=O)[C@H](C)NC(=O)[C@@H](CC(C)C)OC(=O)/C(C)=C/C[C@H](OC(=O)NCCOCCO)[C@@H]1C" ?
## Result 4.15
